Target: NDM-1 (Klebsiella pneumoniae, UniProt C7C422)
Sequence (C7C422 whole entry, looked up, species assumed): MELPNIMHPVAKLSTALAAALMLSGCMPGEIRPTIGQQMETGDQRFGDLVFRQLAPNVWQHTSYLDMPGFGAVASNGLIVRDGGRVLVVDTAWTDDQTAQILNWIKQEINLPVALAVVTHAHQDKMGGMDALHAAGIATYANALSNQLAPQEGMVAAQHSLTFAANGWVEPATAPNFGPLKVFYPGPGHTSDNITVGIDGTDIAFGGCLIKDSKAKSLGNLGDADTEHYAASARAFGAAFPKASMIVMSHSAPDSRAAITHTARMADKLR
Experiment: biochemical
Assay type: biochemical
Conditions: CCF2-FA substrate, 2 hours at 25° C; read-out: NDM-1 IC50
quantity: pIC50
Interpret pIC50 as the negative base-10 log of the concentration measured in mol/L.

Input line: For `Nc1nc2c(-c3ccc(S(=O)(=O)CCO)c(S(N)(=O)=O)c3-c3nn[nH]n3)cccc2s1` , write its pIC50.
Output line: 9.42

Input line: For `C[C@@H](N)CS(=O)(=O)c1ccc(-c2cccc3[nH]c(C(=O)O)nc23)c(-c2nn[nH]n2)c1S(N)(=O)=O` , write its pIC50.
Output line: 9.79

Input line: For `Nc1n[nH]c2c(-c3ccc(S(=O)(=O)C4CNC4)c(S(N)(=O)=O)c3-c3nn[nH]n3)cccc12` , write its pIC50.
Output line: 9.82

Input line: For `NS(=O)(=O)c1c(S(=O)(=O)C2CNC2)ccc(-c2cccc3scnc23)c1-c1nn[nH]n1` , write its pIC50.
Output line: 10.02

Input line: For `Nc1nc2cc(-c3ccc(S(=O)(=O)C4CNC4)c(S(N)(=O)=O)c3-c3nn[nH]n3)ccc2[nH]1` , write its pIC50.
Output line: 9.39

Input line: For N#Cc1ccc(-c2ccc(S(=O)(=O)CCN)c(S(N)(=O)=O)c2-c2nnn[nH]2)cn1.O=C(O)C(F)(F)F [Example 144, 2,2,2-trifluoroacetate] , write its pIC50.
Output line: 8.14

Input line: For `NCCS(=O)(=O)c1ccc(-c2cccc3sc(CN)nc23)c(-c2nn[nH]n2)c1S(N)(=O)=O` , write its pIC50.
Output line: 9.32

Input line: For NS(=O)(=O)c1c(S(=O)(=O)C2CNC2)ccc(-c2cnn3c2CCCC3)c1-c1nnn[nH]1.O=C(O)C(F)(F)F [Example 129, 2,2,2-trifluoroacetate] , write its pIC50.
Output line: 9.19

Input line: For `NS(=O)(=O)c1c(S(=O)(=O)C2CNC2)ccc([C@H]2CC[C@@H](N)CC2)c1-c1nnn[nH]1` , write its pIC50.
Output line: 7.89

Input line: For `Nc1nc2c(-c3ccc(S(=O)(=O)[C@H]4CN[C@H](CO)C4)c(S(N)(=O)=O)c3-c3nn[nH]n3)cccc2s1` , write its pIC50.
Output line: 9.79

Input line: For `COc1ccc(Cc2cc3c(-c4ccc(S(=O)(=O)C5CNC5)c(S(N)(=O)=O)c4-c4nnn[nH]4)cccc3n2C)cc1` , write its pIC50.
Output line: 9.96

Input line: For `CS(=O)(=O)c1ccc([C@H]2CC[C@H](N)CC2)c(-c2nnn[nH]2)c1S(N)(=O)=O` , write its pIC50.
Output line: 7.49

Input line: For NCCS(=O)(=O)c1ccc(-c2ccc(-c3nn[nH]n3)cc2)c(-c2nnn[nH]2)c1S(N)(=O)=O.O=C(O)C(F)(F)F [Example 151, 2,2,2-trifluoroacetate] , write its pIC50.
Output line: 9.57

Input line: For `Nc1nc2c(-c3ccc(S(=O)(=O)C4CNC4)c(S(N)(=O)=O)c3-c3nn[nH]n3)ccc(C(=O)O)c2s1` , write its pIC50.
Output line: 10.54

* * *

Target: NDM-1 (Klebsiella pneumoniae, UniProt C7C422)
Test: biochemical
Format: biochemical
Conditions: CCF2-FA substrate, 2 hours at 25° C; read-out: NDM-1 IC50
Threshold 0.2 nM: IC50 strictly smaller gives True, otherwise False.

Input line: Record `NCCS(=O)(=O)c1ccc(-c2cccc3sc(N)nc23)c(-c2nn[nH]n2)c1S(N)(=O)=O` : is its IC50 strictly below 0.2 nM?
Output line: True

Input line: Record `Cn1c(N)nc2c(-c3ccc(S(=O)(=O)CCN)c(S(N)(=O)=O)c3-c3nn[nH]n3)cccc21` : is its IC50 strictly below 0.2 nM?
Output line: False

Input line: Record Cn1ncc2cc(-c3ccc(S(=O)(=O)CCN)c(S(N)(=O)=O)c3-c3nnn[nH]3)ccc21.O=C(O)C(F)(F)F [Example 160, 2,2,2-trifluoroacetate] : is its IC50 strictly below 0.2 nM?
Output line: False

Input line: Record NS(=O)(=O)c1c(S(=O)(=O)C2CNC2)ccc(-c2cnc3ccccc3c2)c1-c1nnn[nH]1.O=C(O)C(F)(F)F [Example 98, 2,2,2-trifluoroacetate] : is its IC50 strictly below 0.2 nM?
Output line: False

Input line: Record `C[C@H](N)CS(=O)(=O)c1ccc(-c2cccc3c2nc(N)n3C)c(-c2nn[nH]n2)c1S(N)(=O)=O` : is its IC50 strictly below 0.2 nM?
Output line: False

Input line: Record Nc1nc2c(-c3ccc([S+]([O-])C4CNC4)c(S(N)(=O)=O)c3-c3nn[nH]n3)cccc2[nH]1 (centres unmarked) : is its IC50 strictly below 0.2 nM?
Output line: False

Input line: Record `NCCN1CC(S(=O)(=O)c2ccc(-c3cccc4[nH]c(N)nc34)c(-c3nn[nH]n3)c2S(N)(=O)=O)C1` : is its IC50 strictly below 0.2 nM?
Output line: True

Input line: Record `CS(=O)(=O)c1ccc(-c2cnc3ccccn23)c(-c2nn[nH]n2)c1S(N)(=O)=O` : is its IC50 strictly below 0.2 nM?
Output line: False

Input line: Record `NCCS(=O)(=O)c1ccc(-c2ccc3[nH]c(N)nc3c2)c(-c2nn[nH]n2)c1S(N)(=O)=O` : is its IC50 strictly below 0.2 nM?
Output line: False

Input line: Record `NC[C@@H](O)CS(=O)(=O)c1ccc(-c2cc(I)cc3[nH]c(N)nc23)c(-c2nn[nH]n2)c1S(N)(=O)=O` : is its IC50 strictly below 0.2 nM?
Output line: True

Input line: Record NS(=O)(=O)c1c(S(=O)(=O)C2CNC2)ccc(-c2cccc3cccnc23)c1-c1nnn[nH]1.O=C(O)C(F)(F)F [Example 128, 2,2,2-trifluoroacetate] : is its IC50 strictly below 0.2 nM?
Output line: True

Input line: Record `Nc1nc2c(-c3ccc(S(=O)(=O)C4CNC4)c(S(N)(=O)=O)c3-c3nn[nH]n3)cccc2o1` : is its IC50 strictly below 0.2 nM?
Output line: True

Input line: Record NCCS(=O)(=O)c1ccc(-c2ccc(CO)nc2)c(-c2nnn[nH]2)c1S(N)(=O)=O.O=C(O)C(F)(F)F [Example 145, 2,2,2-trifluoroacetate] : is its IC50 strictly below 0.2 nM?
Output line: False

Input line: Record `NCCS(=O)(=O)c1ccc(-c2cccc3c2nc(N)n3C2CNC2)c(-c2nn[nH]n2)c1S(N)(=O)=O` : is its IC50 strictly below 0.2 nM?
Output line: False

* * *

Tested on: P. aeruginosa expressing IMP-1, efflux+ (MB9798)
Assay type: cell-based, Pseudomonas aeruginosa
Details: ratio MITC95 PA_9798/MITC95 PA_9799
quantity: Efflux ratio
No unit in the answer, only the number.

Input line: For CNc1nc2c(-c3ccc(S(=O)(=O)CCN)c(S(N)(=O)=O)c3-c3nn[nH]n3)cccc2s1 [Example 90] , write its Efflux ratio.
Output line: 2.00

Input line: For NS(=O)(=O)c1c(S(=O)(=O)C2CNC2)ccc(-c2ccc3cnccc3c2)c1-c1nnn[nH]1.O=C(O)C(F)(F)F [Example 116] , write its Efflux ratio.
Output line: 15.99

Input line: For NCCS(=O)(=O)c1ccc(-c2ccc3[nH]c(N)nc3c2)c(-c2nn[nH]n2)c1S(N)(=O)=O [Example 69] , write its Efflux ratio.
Output line: 7.02

Input line: For NCc1nc2c(-c3ccc(S(=O)(=O)C[C@@H](O)CN)c(S(N)(=O)=O)c3-c3nn[nH]n3)cccc2[nH]1 [Example 369] , write its Efflux ratio.
Output line: 1.00

Input line: For NCCS(=O)(=O)c1ccc(-c2cccc3[nH]c(CC(N)C(=O)O)nc23)c(-c2nn[nH]n2)c1S(N)(=O)=O (centres unmarked) [Example 330] , write its Efflux ratio.
Output line: 2.00

Input line: For Nc1nc2c(-c3ccc(S(=O)(=O)C4CNC4)c(S(N)(=O)=O)c3-c3nn[nH]n3)cccc2o1 [Example 30] , write its Efflux ratio.
Output line: 1.00

Input line: For C[C@H](CN)S(=O)(=O)c1ccc(-c2cccc3sc(N)nc23)c(-c2nn[nH]n2)c1S(N)(=O)=O [Example 285] , write its Efflux ratio.
Output line: 4.00

Input line: For Cn1nnc2ccc(-c3ccc(S(=O)(=O)C4CNC4)c(S(N)(=O)=O)c3-c3nnn[nH]3)cc21.O=C(O)C(F)(F)F [Example 119] , write its Efflux ratio.
Output line: 63.98

Input line: For NC[C@H](O)CS(=O)(=O)c1ccc(-c2cccc(-c3c[nH]c(N)n3)c2)c(-c2nn[nH]n2)c1S(N)(=O)=O [Example 366] , write its Efflux ratio.
Output line: 2.00

Input line: For NS(=O)(=O)c1c([S+]([O-])C2CCNCC2)ccc(-c2ccc(C3CCNCC3)cc2)c1-c1nnn[nH]1 (centres unmarked) [Example 227] , write its Efflux ratio.
Output line: 2.00

Input line: For NCCS(=O)(=O)c1ccc(-c2cccc(-n3ccnc3)c2)c(-c2nnn[nH]2)c1S(N)(=O)=O [Example 345] , write its Efflux ratio.
Output line: 32.00

Input line: For Nc1nc2c(-c3ccc(S(=O)(=O)CCN4CCOCC4)c(S(N)(=O)=O)c3-c3nn[nH]n3)cccc2s1 [Example 258] , write its Efflux ratio.
Output line: 2.00

Input line: For NS(=O)(=O)c1c(S(=O)(=O)C2CNC2)ccc(-c2cnn3c2CCCC3)c1-c1nnn[nH]1.O=C(O)C(F)(F)F [Example 129] , write its Efflux ratio.
Output line: 15.99

Input line: For C[C@H](N)CS(=O)(=O)c1ccc(-c2cccc3[nH]c(C(=O)O)nc23)c(-c2nn[nH]n2)c1S(N)(=O)=O [Example 294] , write its Efflux ratio.
Output line: 1.00
